tested on: A498 renal; assay: NCI tumour cell line growth inhibition, 48 h
measure: TGI

compound	measure	value
O=C(NNCc1ccco1)c1cc2ccccc2[nH]1	TGI	> 100 µM
O=C(O)NCC1CCCCC1 (tested in a mixture with another compound)	TGI	34.1 µM
Cn1c(Cl)cn2c3nc4ccccc4nc3c(=O)c(C#N)c12	TGI	98.8 µM
CN(N)/N=N/c1nc[nH]c1[N+](=O)[O-]	TGI	> 100 µM
C[n+]1c2ccccc2c(NC(CS)C(=O)O)c2ccccc21 (centres undefined)	TGI	53 µM
COc1cccc(-c2nc3ccccc3c(=O)[nH]2)c1OC	TGI	> 100 µM
COc1ccc(N2C(=O)C3c4[nH]c5ccccc5c4C4CC(C)CC(C)C4C3C2=O)cc1 (centres undefined)	TGI	> 100 µM
COc1ccc(C(=O)/C=C/c2ccc3c(c2)OCO3)c(OCc2ccccc2)c1	TGI	> 100 µM

Return reported TGI; argument: C/C=C1/CCC2c3[nH]c4ccccc4c3CCN2C1 (centres undefined)
> 100 µM

Input "CCOC(=O)/C(=C\c1ccc(C#N)cc1)C(C)=O"
30 µM

Again, but for "O=C(Nc1ccc2[nH]c(=S)sc2c1)Nc1ccccc1F"
> 100 µM

---

system: IGROV1 ovarian; experiment: NCI tumour cell line growth inhibition, 48 h
measure: TGI

Recorded TGI, per entry:
>>> print(df.to_string())
                                   compound  measure     value
0  Fc1ccccc1C1SCc2nc3ccccc3n21 (stereo not drawn)      TGI  > 100 µM
1  O=C(O)CCC(NC(=O)c1ccccc1)C(=O)O (stereo not drawn)      TGI  > 100 µM

Next up:
Which value of TGI has been reported for COc1ccc(OC2OC(COC(c3ccccc3)(c3ccc(OC)cc3)c3ccc(OC)cc3)C(O)C(O)C2O)cc1 (stereo not drawn) in the records?
20.2 µM

---

Readings of TGI for the listed molecules
test system: SF-268 CNS; experiment: NCI tumour cell line growth inhibition, 48 h

molecule	value
COc1c(Br)cc(/C=C(\C#N)c2cccnc2)cc1Br	> 100 µM
NC(=S)N/N=C1/CCCC2CCCC[C@@H]12 (stereo not given in full)	> 100 µM
O=P1(c2ccccc2)C(c2ccccc2)=CC=C1c1ccccc1	> 100 µM
Cc1ccc([N+](=O)[O-])cc1NC(=O)c1cccc([N+](=O)[O-])c1O	83.9 µM
CC1=C(C(=O)N(C(C)C)C(C)C)CC(C(=O)N(C(C)C)C(C)C)=C(C)N1	> 100 µM

TGI lookup needed for "COc1ccc(CC(=O)NCCc2ccc(OC)c(OC)c2)cc1Br" , thanks.
> 100 µM

Next up: "Cc1c2c(Cl)c3c(c(Cl)c2c(C)c2c(Cl)c4c(c(Cl)c12)C(c1ccccc1)(c1ccccc1)C4(c1ccccc1)c1ccccc1)C(c1ccccc1)(c1ccccc1)C3(c1ccccc1)c1ccccc1"
> 100 µM

Try this molecule too: O=S(Nc1ccccc1)c1ccc(Cl)c(Cl)c1 (stereo not given)
82.9 µM

Try "COc1ccc(-n2cc(-c3cc(OC)c(OC)c(OC)c3)nc2SCc2ccccc2)cc1OC" next.
> 100 µM

Proceed to OC1[C@H](O)CN(OCc2ccccc2)C[C@@H]1O (stereo not given in full)
> 100 µM

---

tested on: SK-MEL-2 melanoma; assay: NCI tumour cell line growth inhibition, 48 h
TGI listing for selected molecules.

Consider the following illustrative entries.
molecule	TGI
Cc1ccc([N+](=O)[O-])cc1NC(=O)c1cccc([N+](=O)[O-])c1O	33.9 µM
N=[N+]=CC(=O)CCC(NC(=O)C(CCC(=O)C=[N+]=N)NC(=O)CCC(N)C(=O)O)C(=O)O (centres undefined)	> 100 µM
Cc1ccc2nc(-c3ccccc3)c(N=O)n2c1	> 100 µM

Now examine the next entry.
What reported TGI corresponds to "Cc1c2c(Cl)c3c(c(Cl)c2c(C)c2c(Cl)c4c(c(Cl)c12)C(c1ccccc1)(c1ccccc1)C4(c1ccccc1)c1ccccc1)C(c1ccccc1)(c1ccccc1)C3(c1ccccc1)c1ccccc1" on SK-MEL-2 melanoma?
> 100 µM

---

test system: OVCAR-5 ovarian; experiment: NCI tumour cell line growth inhibition, 48 h
measure: TGI (µM)
Report as a plain number; the unit µM is understood.

Solved entries (count: 2):
>>> print(df.to_string())
                                   compound  value
0  CCOc1cc2c(cc1O)CC[C@@H]1[C@@H]2CC[C@]2(C)C(N)CC[C@@H]12 (stereo not given in full)   36.9
1  COc1cc2c(cc1OCCCCCOc1ccc(-n3c(C)nc4ccccc4c3=O)cc1)N=C[C@@H]1CCCN1C2=O  0.678

# evaluate next
Param item = "NC(N)=N/N=C/c1c(-c2cc([N+](=O)[O-])c(Cl)cc2Cl)nc2sccn12" ; retrieve measured TGI.
3.39

---

Overview of recorded TGI for various molecules
system: UACC-62 melanoma; assay: NCI tumour cell line growth inhibition, 48 h

                                   molecule     value
0       Oc1cc(-c2ccc(Cl)cc2)cn2c1nc1ccccc12  > 100 µM
1       Cc1ccc(C2=C(C#N)C(=O)N3CCN=C3S2)cc1  > 100 µM
2  O=C1CCCC1C(O)(C(F)(F)F)C(F)(F)F (configuration not stated)  > 100 µM
3        Cc1cc2[nH]c(=O)c3c4ccccc4cn3c2cc1C   31.9 µM
4      COc1c(Br)cc(/C=C(\C#N)c2cccnc2)cc1Br  > 100 µM

Using the record for CCN1C(=O)N(c2ccccc2)C2NC(=S)N(/N=C/C=C/c3ccccc3)C21 (configuration not stated) , report its TGI.
> 100 µM

Try this molecule too: COc1ccc(N2C(=O)C3c4[nH]c5ccccc5c4C4CC(C)CC(C)C4C3C2=O)cc1 (configuration not stated)
> 100 µM

Try this molecule too: "COC(=O)C1=C(C(=O)OC)SC(=C(Cl)C(=S)Nc2ccccc2O)S1"
18.6 µM

---

test system: OVCAR-8 ovarian; test: NCI tumour cell line growth inhibition, 48 h; in the data active = GI50 below about 0.43 µM; inactive = the rest
# valid calls are active, inactive; nothing else

Study these solved cases before continuing.
molecule	label-value
C=C(C)[C@@H]1CC[C@]2(C)[C@H](CC=C3[C@@H]4[C@@H](C)[C@H](C)CC[C@]4(C(N)=O)CC[C@]32C)[C@@]1(C)CCC#N	inactive
COc1ccc(S(=O)(=O)Nc2cc(/C=C\c3cc(OC)c(OC)c(OC)c3)ccc2OC)cc1	active

Tell me the assay call for "CCN1Cc2c(ccc(F)c2C#N)O[C@@H](C)CNC(=O)c2c(N)nn3ccc1nc23" please.
inactive

Next up: CN(C)CC1C(=O)O[C@H]2[C@H]1CC/C(COC(=O)c1cc3ccccc3[nH]1)=C\CC[C@@]1(C)O[C@@H]21 (some centres undefined)
inactive

Another molecule to look at: "FC(F)(F)c1ccc(C#Cc2ccccc2C#Cc2ccccc2)cc1"
inactive

---

system: NCI-H226 lung; experiment: NCI tumour cell line growth inhibition, 48 h
Consider the following compounds and their measured TGI readings.

compound	measurement-target	TGI
O=C(NC1C=Nc2ccc([N+](=O)[O-])cc2NC1=O)c1cc(Cl)cc([N+](=O)[O-])c1 (centres undefined)	NCI-H226 lung	> 100 µM

Look up TGI for this compound: "CCN(CC)c1c(-c2c(N(CC)CC)c(OC(C)=O)c3sccn3c2=O)c(=O)n2ccsc2c1OC(C)=O"
> 100 µM

How about this compound: CC1(C)OC(CP(c2ccccc2)c2ccccc2)C(CP(c2ccccc2)c2ccccc2)O1 (centres undefined)
> 100 µM

Check "C[C@]12C[C@@H](c3ccccc3)Nc3ccccc3N1C(c1ccccc1)=NO2" too.
90.8 µM

Can you check CCCCCCCCCCC(C(O)c1ccccc1)N1CCCCC1 (centres undefined) next?
12.4 µM

---

# TGI annotations
test system: CCRF-CEM leukemia; experiment: NCI tumour cell line growth inhibition, 48 h
Record the value in µM, omitting the unit from your answer.

                              smiles_string  value
0  Cc1cc(NCc2cc(Nc3ccnc4cc(Cl)ccc34)ccc2F)nc(N2CCN(C)CC2)n1    7.6
1  CN(C)CCCNc1c(C#N)[n+]([O-])c2cc(Cl)ccc2[n+]1[O-]     42

Let us examine a further case.
Would you kindly share the measured TGI for "COc1cccc2c1C(=O)c1c(O)c3c(c(O)c1C2=O)C[C@@](O)(C(=O)CO)C[C@@H]3O[C@H]1C[C@H](N)[C@@H](O)[C@H](C)O1" ?
0.95

---

test system: UACC-257 melanoma; test: NCI tumour cell line growth inhibition, 48 h
measure: TGI

Some solved entries appear below for comparison.
>>> df
                                   molecule     value
0  Cc1c(C(=O)CC(=O)C(=O)Nc2ccc(Cl)cc2)[n+](=O)c2ccccc2n1[O-]  > 100 µM
1  CN(C(=O)C1CCCCCC1=O)c1ccccc1Cl (stereo not given)  > 100 µM
2  O=P(CCCCP(=O)(c1ccccc1)c1ccccc1)(c1ccccc1)c1ccccc1.[Cl][Sn]([Cl])([c]1ccccc1)[c]1ccccc1   3.31 µM
3  C=CCc1ccccc1CC1(OCC)OC(=O)c2ccccc21 (stereo not given)  > 100 µM

We next turn to a different molecule, shown below.
What value of TGI on UACC-257 melanoma does "Cc1ccc(C)n1-c1ccccc1C1C=CN(C(=O)OC(C)(C)C)C=C1" have?
> 100 µM
